test: Acid induced degradation at pH 2.5, gas chromatography; assay type: physicochemical; conditions: DHA preparation without lycopene
measurementName: GC peak Area, %, After 2 hours at pH 2.5 (%)
Express the result in % but write the number alone.

>>> valuereported("CCCCCCCCCCCCCCC(=O)O [Pentadecanoic]")
0.26
>>> valuereported("CCC=CCC=CCC=CCC=CCC=CC/C=C\\CCC(=O)O [cis-4,7,10,13,16,19-Docosahexaenoic]")
43.54
>>> valuereported("CCCCCCCCCCCCCC(=O)O [Myristic]")
6.42
>>> valuereported("CCCCCCCCCCCCCCCCCCCCCCCC(=O)O [Lignoceric]")
0.17
>>> valuereported("CCCCCCCC/C=C/CCCCCCCC(=O)O [Elaidic]")
0.24
>>> valuereported("CCCCCC/C=C\\CCCCCCCC(=O)O [Palmitoleic]")
0.19
>>> valuereported("CCCC/C=C\\CCCCCCCC(=O)O [Myristoleic]")
0.18

// moving on: another record for GC peak Area, %, After 2 hours at pH 2.5
For CCCCCCCCCCCCCCCC(=O)O [Palmitic] the compound record lists GC peak Area, %, After 2 hours at pH 2.5 as 17.66
